# system: Human MTAP (Homo sapiens, UniProt Q13126)
# Construct: six-histidine tag (His6) (N); made in house; host or cells: E. coli BL21 DE3
# Sequence (Q13126 1-283): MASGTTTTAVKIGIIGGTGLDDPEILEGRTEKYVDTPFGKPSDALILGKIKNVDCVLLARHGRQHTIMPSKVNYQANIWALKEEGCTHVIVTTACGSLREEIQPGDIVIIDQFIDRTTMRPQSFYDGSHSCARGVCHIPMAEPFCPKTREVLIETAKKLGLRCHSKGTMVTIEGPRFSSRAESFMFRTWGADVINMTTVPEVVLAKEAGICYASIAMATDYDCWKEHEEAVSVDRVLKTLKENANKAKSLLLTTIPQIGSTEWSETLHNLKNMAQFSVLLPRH
# procedure text: MTAP substrate assay, coupled spectrophotometric (adenine, xanthine oxidase)
# Format: biochemical
# condition summary: 10 min; compound 50 uM, 2 nM MTAP, relative to MTA at 50 uM; read-out: MT-A—50: initial velocity as a percentage of the initial velocity with MTA as substrate
reported property: activity at 50 µM (%)
Answer format: numeric, % implied, no suffix.

# example entries with known answers
molecule | activity at 50 µM / %
Nc1ccc(SC[C@H]2O[C@@H](n3cnc4c(N)ncnc43)[C@H](O)[C@@H]2O)cc1 | 19
CC(O)C(C)SC[C@H]1O[C@@H](n2cnc3c(N)ncnc32)[C@H](O)[C@@H]1O (stereo partly shown) | 7.5
CCOC(=O)C(C)SC[C@H]1O[C@@H](n2cnc3c(N)ncnc32)[C@H](O)[C@@H]1O (stereo partly shown) | 7.5

So, CCCC(CCO)SC[C@H]1O[C@@H](n2cnc3c(N)ncnc32)[C@H](O)[C@@H]1O (stereo partly shown) ? Its activity at 50 µM was 6

Entry under test: `CC(C)(C)c1cc(O)nc(SC[C@H]2O[C@@H](n3cnc4c(N)ncnc43)[C@H](O)[C@@H]2O)n1` . Its activity at 50 µM was 33.5

activity at 50 µM in this record for `Cc1cc(C)c(C#N)c(SC[C@H]2O[C@@H](n3cnc4c(N)ncnc43)[C@H](O)[C@@H]2O)n1` : 7
